- TEST TARGET: HDAC6 enzyme (Homo sapiens, UniProt Q9UBN7)
- Construct: transducing full length HDAC6 gene into Sf-9 insect cells; GST; purchased SignalChem; host or cells: Sf-9 insect cells
- Sequence (Q9UBN7 whole entry): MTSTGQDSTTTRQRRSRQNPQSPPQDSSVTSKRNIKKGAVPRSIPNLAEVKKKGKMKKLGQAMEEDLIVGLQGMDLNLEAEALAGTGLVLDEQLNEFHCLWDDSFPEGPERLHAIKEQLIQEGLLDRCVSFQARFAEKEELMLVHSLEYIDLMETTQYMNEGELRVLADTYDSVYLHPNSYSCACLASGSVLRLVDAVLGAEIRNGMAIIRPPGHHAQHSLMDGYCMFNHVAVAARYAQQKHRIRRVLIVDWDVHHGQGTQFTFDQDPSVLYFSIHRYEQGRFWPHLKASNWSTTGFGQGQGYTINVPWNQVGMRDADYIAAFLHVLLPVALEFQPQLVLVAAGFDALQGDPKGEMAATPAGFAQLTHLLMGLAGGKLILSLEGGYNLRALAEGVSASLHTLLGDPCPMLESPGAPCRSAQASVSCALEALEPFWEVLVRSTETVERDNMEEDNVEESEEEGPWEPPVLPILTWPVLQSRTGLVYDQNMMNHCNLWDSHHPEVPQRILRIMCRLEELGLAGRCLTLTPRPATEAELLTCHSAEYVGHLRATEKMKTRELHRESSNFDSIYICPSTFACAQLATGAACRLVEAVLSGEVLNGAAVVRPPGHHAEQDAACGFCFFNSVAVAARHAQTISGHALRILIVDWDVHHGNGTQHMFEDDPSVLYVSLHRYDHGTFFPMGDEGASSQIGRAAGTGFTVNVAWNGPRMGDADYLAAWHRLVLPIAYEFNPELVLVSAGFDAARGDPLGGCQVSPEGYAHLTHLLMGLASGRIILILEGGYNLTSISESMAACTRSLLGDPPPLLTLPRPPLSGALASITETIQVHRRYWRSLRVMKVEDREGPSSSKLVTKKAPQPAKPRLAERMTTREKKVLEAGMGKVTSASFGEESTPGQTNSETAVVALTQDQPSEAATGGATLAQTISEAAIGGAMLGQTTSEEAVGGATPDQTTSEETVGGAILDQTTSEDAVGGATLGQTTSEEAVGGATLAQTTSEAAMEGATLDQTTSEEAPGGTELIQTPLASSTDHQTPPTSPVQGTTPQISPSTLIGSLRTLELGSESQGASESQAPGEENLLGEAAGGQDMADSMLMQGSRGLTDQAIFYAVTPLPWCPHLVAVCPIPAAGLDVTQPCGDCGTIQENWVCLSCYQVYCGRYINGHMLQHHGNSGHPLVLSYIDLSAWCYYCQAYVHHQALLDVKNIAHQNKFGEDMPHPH
- EXPERIMENT NOTES: HDAC6 enzyme inhibitory activity (HDAC-Glo I/II Assay kit)
- Type: biochemical
- APPLIED CONDITIONS: 10 μM; wells without enzyme = 100% inhibition; read-out: HDAC6 inhibitory rate (%) (10 μM)
Please go through the items and note down their inhibition at 10 µM.
Supply the numeric figure in %, leaving out any unit text.

Record C[C@@](O)(C(=O)N[C@@H]1CCCC[C@H]1N1Cc2ccc(-c3nnc(C(F)F)o3)cc2C1=O)C(F)(F)F [Example 104] has HDAC6 enzyme (Homo sapiens, UniProt Q9UBN7) inhibition at 10 µM equal to 97

Record O=C1c2cc(-c3nnc(C(F)F)o3)cnc2CN1Cc1cccc(OC(F)F)c1 [Example 395] has HDAC6 enzyme (Homo sapiens, UniProt Q9UBN7) inhibition at 10 µM equal to 99

Record COc1ccc(CN2Cc3ncc(-c4nnc(C(F)F)o4)cc3C2=O)cc1 [Example 332] has HDAC6 enzyme (Homo sapiens, UniProt Q9UBN7) inhibition at 10 µM equal to 99

Record O=C1c2cc(-c3nnc(C(F)F)o3)ccc2CN1c1cccc(F)c1-c1cccc(F)c1 [Example 398] has HDAC6 enzyme (Homo sapiens, UniProt Q9UBN7) inhibition at 10 µM equal to 102

Record Cn1cc(C2CCC(NCC(F)(F)C(F)(F)F)CC2)c(N2Cc3ccc(-c4nnc(C(F)F)o4)cc3C2=O)n1 (stereo not drawn) [Example 557] has HDAC6 enzyme (Homo sapiens, UniProt Q9UBN7) inhibition at 10 µM equal to 99

Record O=C1c2cc(-c3nnc(C(F)F)o3)ccc2CN1[C@@H]1CCCC[C@H]1n1cccn1 (relative stereo) [Example 528] has HDAC6 enzyme (Homo sapiens, UniProt Q9UBN7) inhibition at 10 µM equal to 99

Record CC(F)(F)C(=O)N[C@@H]1CCCC(F)(F)[C@H]1N1Cc2ncc(-c3nnc(C(F)F)o3)cc2C1=O [Example 500] has HDAC6 enzyme (Homo sapiens, UniProt Q9UBN7) inhibition at 10 µM equal to 99

Record O=C(N[C@@H]1CCCC[C@H]1N1C(=O)c2ccc(-c3nnc(C(F)F)o3)cc2C1=O)OCc1ccccc1 [Example 142] has HDAC6 enzyme (Homo sapiens, UniProt Q9UBN7) inhibition at 10 µM equal to 99

Record O=C1c2cc(-c3nnc(C(F)F)o3)cnc2CN1[C@@H]1CCCC[C@H]1c1ccccn1 (relative stereo) [Example 587] has HDAC6 enzyme (Homo sapiens, UniProt Q9UBN7) inhibition at 10 µM equal to 99

Record COC(=O)N1CC[C@@H](N2Cc3ncc(-c4nnc(C(F)F)o4)cc3C2=O)[C@H](c2ccc(F)cc2)C1 [Example 494] has HDAC6 enzyme (Homo sapiens, UniProt Q9UBN7) inhibition at 10 µM equal to 100

Record O=C1c2cc(-c3nnc(C(F)F)o3)ccc2CN1c1ccc(Cl)cc1-c1cnn(C(F)F)c1 [Example 405] has HDAC6 enzyme (Homo sapiens, UniProt Q9UBN7) inhibition at 10 µM equal to 101

Record Cn1ccc(N2Cc3ccc(-c4nnc(C(F)F)o4)cc3C2=O)n1 [Example 442] has HDAC6 enzyme (Homo sapiens, UniProt Q9UBN7) inhibition at 10 µM equal to 94

Record CCCCCCC(=O)N[C@@H]1CCCC[C@H]1N1Cc2ccc(-c3nnc(C(F)F)o3)cc2C1=O [Example 107] has HDAC6 enzyme (Homo sapiens, UniProt Q9UBN7) inhibition at 10 µM equal to 102

Record O=C1c2cc(-c3nnc(C(F)F)o3)ccc2CN1C[C@H]1CCCCN1S(=O)(=O)C1CC1 [Example 41] has HDAC6 enzyme (Homo sapiens, UniProt Q9UBN7) inhibition at 10 µM equal to 98

Record O=C1c2cc(-c3nnc(C(F)F)o3)ccc2CN1[C@H]1CCCC[C@H]1n1cccn1 (relative stereo) [Example 542] has HDAC6 enzyme (Homo sapiens, UniProt Q9UBN7) inhibition at 10 µM equal to 90

Record COc1ccc(CN2Cc3ncc(-c4nnc(C(F)F)o4)cc3C2=O)c(OC)c1 [Example 272] has HDAC6 enzyme (Homo sapiens, UniProt Q9UBN7) inhibition at 10 µM equal to 100

Record O=C(N[C@@H]1CCCC[C@H]1N1Cc2ccc(-c3nnc(C(F)F)o3)cc2C1=O)C1CC1 [Example 11] has HDAC6 enzyme (Homo sapiens, UniProt Q9UBN7) inhibition at 10 µM equal to 98

Record CC(F)(F)C(=O)N[C@@H]1CCCC[C@H]1N1Cc2ccc(-c3nnc(C(F)F)o3)cc2C1=O [Example 40] has HDAC6 enzyme (Homo sapiens, UniProt Q9UBN7) inhibition at 10 µM equal to 100

Record CC(C)(C)OC(=O)N1CCC[C@H](N2Cc3ccc(-c4nnc(C(F)F)o4)cc3C2=O)[C@H]1c1ccc(F)cc1 (racemic) [Example 574] has HDAC6 enzyme (Homo sapiens, UniProt Q9UBN7) inhibition at 10 µM equal to 100

Record O=C1c2cc(-c3nnc(C(F)F)o3)ccc2CN1C[C@H]1COCCN1C(=O)C1CCCC1 [Example 47] has HDAC6 enzyme (Homo sapiens, UniProt Q9UBN7) inhibition at 10 µM equal to 99

Record O=C1c2cc(-c3nnc(C(F)F)o3)ccc2CN1C1(C(=O)NCC(F)(F)F)CC1 [Example 187] has HDAC6 enzyme (Homo sapiens, UniProt Q9UBN7) inhibition at 10 µM equal to 92

Record CCCC(=O)N[C@@H]1CCCC[C@H]1N1Cc2ncc(-c3nnc(C(F)F)o3)cc2C1=O [Example 462] has HDAC6 enzyme (Homo sapiens, UniProt Q9UBN7) inhibition at 10 µM equal to 100

Record O=C1c2cc(-c3nnc(C(F)F)o3)cnc2CN1C1(c2ccc(F)cc2)CC1 [Example 347] has HDAC6 enzyme (Homo sapiens, UniProt Q9UBN7) inhibition at 10 µM equal to 98

Record COC(=O)N1CC[C@@H](c2ccc(F)cc2)[C@H](N2Cc3ccc(-c4nnc(C(F)F)o4)cc3C2=O)C1 (relative stereo) [Example 544] has HDAC6 enzyme (Homo sapiens, UniProt Q9UBN7) inhibition at 10 µM equal to 99

Record COC1(C(=O)N[C@@H]2CCCC[C@H]2N2Cc3ccc(-c4nnc(C(F)F)o4)cc3C2=O)CCC1 [Example 25] has HDAC6 enzyme (Homo sapiens, UniProt Q9UBN7) inhibition at 10 µM equal to 99

Record CC(C)(C)OC(=O)NCC1(N2Cc3c(F)cc(-c4nnc(C(F)F)o4)cc3C2=O)CCCCC1 [Example 341] has HDAC6 enzyme (Homo sapiens, UniProt Q9UBN7) inhibition at 10 µM equal to 82

Record Cn1cncc1C(=O)N[C@@H]1CCCC[C@H]1N1Cc2ccc(-c3nnc(C(F)F)o3)cc2C1=O [Example 96] has HDAC6 enzyme (Homo sapiens, UniProt Q9UBN7) inhibition at 10 µM equal to 98

Record CC(C)(C)OC(=O)N1CCC[C@@H](N2Cc3ccc(-c4nnc(C(F)F)o4)cc3C2=O)[C@H]1c1ccc(F)cc1 (racemic) [Example 618] has HDAC6 enzyme (Homo sapiens, UniProt Q9UBN7) inhibition at 10 µM equal to 99

Record CC1(C(=O)N[C@@H]2CCCC[C@H]2N2Cc3ccc(-c4nnc(C(F)F)o4)cc3C2=O)CC1 [Example 15] has HDAC6 enzyme (Homo sapiens, UniProt Q9UBN7) inhibition at 10 µM equal to 98

Record O=C1c2cc(-c3nnc(C(F)F)o3)cc(F)c2CN1C[C@H]1COCCN1S(=O)(=O)c1ccc(F)cc1 [Example 252] has HDAC6 enzyme (Homo sapiens, UniProt Q9UBN7) inhibition at 10 µM equal to 99

###

- TEST TARGET: HDAC6 enzyme (Homo sapiens, UniProt Q9UBN7)
- Construct: transducing full length HDAC6 gene into Sf-9 insect cells; GST; purchased SignalChem; host or cells: Sf-9 insect cells
- EXPERIMENT NOTES: HDAC6 enzyme inhibitory activity (HDAC-Glo I/II Assay kit)
- Format: biochemical
- APPLIED CONDITIONS: 10 μM; wells without enzyme = 100% inhibition; read-out: HDAC6 inhibitory rate (%) (10 μM)
Please go through the items and note down their inhibition at 10 µM.
Put down the number, then write its unit next to it.

# inhibition at 10 µM of O=C(N[C@H]1[C@H](N2Cc3ccc(-c4nnc(C(F)F)o4)cc3C2=O)CCCC1(F)F)OCc1ccccc1 = 100%

# inhibition at 10 µM of CCN(CC)C(=O)C1CC(F)(F)CCN1N1Cc2ccc(-c3nnc(C(F)F)o3)cc2C1=O (stereo not shown) = 99%

# inhibition at 10 µM of O=C1c2cc(-c3nnc(C(F)F)o3)cnc2CN1Cc1ccccc1Br = 99%

# inhibition at 10 µM of N#Cc1ccccc1C(=O)N[C@@H]1CCCC[C@H]1N1Cc2ncc(-c3nnc(C(F)F)o3)cc2C1=O = 99%
